Data provenance is patent US9365576B2.

# system-under-test: human MDM2 protein (amino acids 2-188) (Homo sapiens (Human))
# assay-info: TR-FRET assay, p53-MDM2 Assay 2 (modified)
# Assay type: binding
# condition-notes: TR-FRET; 0.1 nM MDM2, 0.1 nM Europium labeled streptavidin, Tecan genios Pro reader; read-out: IC50 p53-MDM2 Assay 2
# IC50 listing for each entry below
Your answer should be a plain number; it is taken to be in nM.

Query: Consider the compound COc1ccc(C(=O)O)cc1-c1cc2c(n1C(C)C)[C@@H](c1ccc(Cl)cc1)N(c1cc(Cl)ccc1C)C2=O . State its measured IC50.
Result: 6.21

Query: Consider the compound COc1nc(N(C)C)ncc1-c1cc2c(n1C(C)C)C(c1ccc(C#N)cc1)N(c1cc(Cl)c(=O)n(C)c1)C2=O (stereo not shown) . State its measured IC50.
Result: 0.225

Query: Consider the compound COc1nc(N)ncc1-c1cc2c(n1C(C)C)C(c1ccc(Cl)cc1C)N(c1cc(Cl)c(=O)n(C)c1)C2=O (stereo not shown) . State its measured IC50.
Result: 0.592

Query: Consider the compound COC[C@@H](C)n1c(-c2cnc(N)nc2OC)cc2c1C(c1ccc(C#N)cc1)N(c1ccc(F)c(Cl)c1)C2=O (stereo partly shown) . State its measured IC50.
Result: 0.631

* * *

# system-under-test: human MDM2 protein (amino acids 2-188) (Homo sapiens (Human))
# assay-info: TR-FRET assay, p53-MDM2 Assay 2 (modified)
# Assay type: binding
# condition-notes: TR-FRET; 0.1 nM MDM2, 0.1 nM Europium labeled streptavidin, Tecan genios Pro reader; read-out: IC50 p53-MDM2 Assay 2
For each record, check the reported IC50: if it is below 0.8 nM write YES, else write NO.

Query: Just wondering, is IC50 of COc1ncc(-c2cc3c(n2C(C)C)C(c2ccc(C#N)c(F)c2)N(c2cc(Cl)cn(C)c2=O)C3=O)c(OC)n1 (centres unmarked) below 0.8 nM?
Result: YES

Further cases:
Query: Just wondering, is IC50 of COc1ccc(S(C)(=O)=O)cc1-c1cc2c(n1C(C)C)C(c1ccc(Cl)cc1)N(c1cc(Cl)ccc1C)C2=O (centres unmarked) below 0.8 nM?
Result: YES

Query: Just wondering, is IC50 of COc1nc(N(C)C)ncc1-c1cc2c(n1C(C)C)[C@H](c1ccc(C#N)cc1)N(c1ccc(F)c(Cl)c1)C2=O below 0.8 nM?
Result: YES

Query: Just wondering, is IC50 of CNc1ncc(-c2cc3c(n2C(C)C)C(c2ccc(Cl)cc2)N(c2cc(Cl)ccc2C)C3=O)c(OC)n1 (centres unmarked) below 0.8 nM?
Result: YES

Query: Just wondering, is IC50 of CNC(=O)c1ccc(OC)c(-c2cc3c(n2C(C)C)C(c2ccc(Cl)cc2)N(C2CCOCC2)C3=O)c1 (centres unmarked) below 0.8 nM?
Result: NO

Query: Just wondering, is IC50 of COc1ccccc1-c1cc2c(n1C(C)C)C(c1ccc(Cl)cc1C)N([C@H]1CC[C@H](O)CC1)C2=O (some centres unmarked) below 0.8 nM?
Result: NO

* * *

# system-under-test: human MDM2 protein (amino acids 2-188) (Homo sapiens (Human), UniProt Q00987)
# Sequence (Q00987 2-188): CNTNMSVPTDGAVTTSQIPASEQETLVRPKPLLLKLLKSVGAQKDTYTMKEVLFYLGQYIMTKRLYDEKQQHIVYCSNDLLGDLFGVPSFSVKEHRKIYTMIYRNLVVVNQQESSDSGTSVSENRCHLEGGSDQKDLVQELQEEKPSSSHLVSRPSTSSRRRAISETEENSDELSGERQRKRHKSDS
# assay-info: TR-FRET assay, p53-MDM2 Assay 2 (modified)
# Type: binding
# condition-notes: TR-FRET; 0.1 nM MDM2, 0.1 nM Europium labeled streptavidin, Tecan genios Pro reader; read-out: IC50 p53-MDM2 Assay 2
# pIC50 listing for each entry below
Answer as the number alone; pIC50 is minus log10 of concentration in mol/L.

For orientation, consider the following solved cases.
Query: Consider the molecule COc1ccc(CC(=O)N(C)C)cc1-c1cc2c(n1C(C)C)C(c1ccc(Cl)cc1)N(c1cc(Cl)ccc1C)C2=O (centres unmarked) . State its measured pIC50.
Result: 9.82

Query: Consider the molecule CCOC(=O)c1c2c(n(C(C)C)c1-c1cnc(OC)nc1OC)C(c1ccc(Cl)cc1)N(c1cc(Cl)c(=O)n(C)c1)C2=O (centres unmarked) . State its measured pIC50.
Result: 9.87

Query: Consider the molecule COc1ncc(-c2cc3c(n2C(C)C)[C@H](c2ccc(C#N)cc2)N(c2cc(Cl)cn(C)c2=O)C3=O)c(OC)n1 . State its measured pIC50.
Result: 9.28

Query: Consider the molecule COc1nc(N(C)C)ncc1-c1cc2c(n1C(C)C)C(c1ccc(C#N)cc1)N(c1cccc(Cl)c1F)C2=O (centres unmarked) . State its measured pIC50.
Result: 9.73

Query: Consider the molecule COc1nc(N)ncc1-c1cc2c(n1C(C)C)C(c1ccc(Cl)cc1)N(c1cc(Cl)ccc1C)C2=O (centres unmarked) . State its measured pIC50.
Result: 9.58

Further cases:
Query: Consider the molecule COc1ncc(-c2cc3c(n2C(C)C)C(c2ccc(Cl)cc2)N(c2ccc(F)c(Cl)c2)C3=O)c(OC)n1 (centres unmarked) . State its measured pIC50.
Result: 9.57

Query: Consider the molecule COc1ncc(-c2cc3c(n2C(C)C)C(c2ccc(Cl)cc2)N(c2cc(Cl)c[nH]c2=O)C3=O)c(OC)n1 (centres unmarked) . State its measured pIC50.
Result: 9.71

Query: Consider the molecule COc1ncc(-c2cc3c(n2C(C)C)[C@H](c2ccc(C#N)cc2)N(c2cc(Cl)c(=O)n(C)c2)C3=O)c(OC)n1 . State its measured pIC50.
Result: 9.97

Query: Consider the molecule [2H]C([2H])([2H])Oc1ncc(-c2cc3c(n2C(C)C)[C@H](c2ccc(Cl)cc2)N(c2cc(Cl)c(=O)n(C)c2)C3=O)c(OC([2H])([2H])[2H])n1 . State its measured pIC50.
Result: 9.97

Query: Consider the molecule CNC(=O)c1ccc(OC)c(-c2cc3c(n2C(C)C)[C@H](c2ccc(Cl)cc2C)N(c2cc(Cl)ccc2C)C3=O)c1 . State its measured pIC50.
Result: 10.03

Query: Consider the molecule COc1nc(N(C)C)ncc1-c1cc2c(n1C(C)C)[C@H](c1ccc(C#N)cc1)N(c1cc(Cl)c[nH]c1=O)C2=O . State its measured pIC50.
Result: 9.79

Query: Consider the molecule COc1ncc(-c2cc3c(n2C(C)C)C(c2ccc(Cl)cc2)N([C@H]2CC[C@H](OC)CC2)C3=O)c(OC)n1 (some centres unmarked) . State its measured pIC50.
Result: 8.77

Query: Consider the molecule COc1ccccc1-c1c(F)c2c(n1C(C)C)C(c1ccc(Cl)cc1)N(c1cc(Cl)ccc1C)C2=O (centres unmarked) . State its measured pIC50.
Result: 9.31

Query: Consider the molecule COc1nc(N)ncc1-c1cc2c(n1C(C)C)[C@@H](c1ccc(C#N)cc1)N(c1ccc(F)c(Cl)c1)C2=O . State its measured pIC50.
Result: 6.94
